// reported soluble fraction (log2) per item
experiment: soluble fraction after stress (log2 fold change); higher = more stays soluble; pooled small domains, quantitative proteomics; settings: stress: 75 degC;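 note: 20 min heating vs room temperature control held 20 min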
property: soluble fraction (log2)

[
  {
    "sequence-content": "HMKGSPFSQLPKEKKKRILQAAIEVFAQNDYKHASTDEIASRAGISKGLLFYYFHDKKTLYFYLGEYLKR",
    "quantitative-readout": 0.118
  },
  {
    "sequence-content": "HMLKLSGEESQQLALRLREELARRRITRQGLADAAKISISTLEQVLAGRRTFTLATIVRLEEGLGIKLL",
    "quantitative-readout": -2.65
  },
  {
    "sequence-content": "HMEKLSMLKIKELFRLAIEMNLSHRQIAQSLNVSHTVVNRYLKRFKKSNLSYETLLKLGDKEIISALYEH",
    "quantitative-readout": -3.67
  },
  {
    "sequence-content": "HMKEINFTIEESAKGRLDKVIAENVADLTRSQVQSLIKKGQILVNDAPTTNRYQVKPNDQVIIKLPDPV",
    "quantitative-readout": 0.396
  },
  {
    "sequence-content": "HMEGPALKVWKARYLRAAILEQLLSDRWDDRGGQPIRVVVNEPTNSLLIRIPRHLWPEAEKLLQELDQR",
    "quantitative-readout": -2.34
  },
  {
    "sequence-content": "HMKLTINIDAAHDGKTIKQLFAEKGYSLELIKKFKYDGAIEVNGERKTVRWVLREGDLLVLEAN",
    "quantitative-readout": -2.42
  },
  {
    "sequence-content": "HMGIILDWELFEQFADKLKRKKVDFVIEPYLRFEGRRGEQSTLFIKDPSGNYLEFKAFKNIDMLFEK",
    "quantitative-readout": -1.78
  },
  {
    "sequence-content": "HMEFSYMDQGLERYRAFLETHGHGNVPESYHELKLVNFVAHIRKLYRMNLLSEERRRALDEAGFVF",
    "quantitative-readout": -2.5
  }
]

---

test: soluble fraction after stress (log2 fold change); higher = more stays soluble; pooled small domains, quantitative proteomics; conditions: stress: 75 degC
property: soluble fraction (log2)

[
  {
    "sequence-content": "HMQPNVTRERILAAAMTVFAQKGWQKTSLDEVAAAAGMTKGAIYWHFRNKNDLFFALLDARLQRD",
    "property": "soluble fraction (log2)",
    "quantitative-readout": -2.16
  },
  {
    "sequence-content": "HMKEIDVPNVVGASENAARKLLESYGFQVEVQWENGERVDNAVVKSYSPNGSAKSGSTVTIVLGT",
    "property": "soluble fraction (log2)",
    "quantitative-readout": 0.0998
  },
  {
    "sequence-content": "HMTGENWAERSRQLAAAGLLVLGKEAQEKIASLPNLIPLIEAAAASDTRLLNAQTIDELLSFVPTEETI",
    "property": "soluble fraction (log2)",
    "quantitative-readout": -0.104
  },
  {
    "sequence-content": "HMESENANVNRAMLTGIASMHAGQLETALNKFNEVIQLAPDFAEGWNKRATIFYLMKKFDRSVNDIAQTLK",
    "property": "soluble fraction (log2)",
    "quantitative-readout": 0.0648
  },
  {
    "sequence-content": "HMETLKLRDSGKEVQSLQELLQRQGLSAPMNGIFDEATKSSVIAFQKANGLDADGIVGYKSWETLFTAG",
    "property": "soluble fraction (log2)",
    "quantitative-readout": 0.0141
  }
]
